Numbers sourced from PubChem BioAssay AID1345083.

# method: Cytotoxic Profiling in HEK 293 Cell Line of Diverse Libraries Using Quantitative High-Throughput Screening; also: nearly all actives have a fitted effect of over 60% in size
# experimental-parameters: HEK 293 viability, ATP luminescence (CellTiter-Glo), 48-72 h; series mostly up to 115 µM
The whole screen tested about 94,000 compounds, of which about 6,200 (6.6%) were called active. Roughly 31% stayed inconclusive and do not appear here. Calls follow the shape of the dose curve; as a rule, active = well fitted inhibition curve with a large enough effect; inconclusive = small, poorly fitted or top-dose-only effect; inactive = flat fitted curve, though single readings scatter. For the sample, actives were picked, then their nearest neighbours and some compounds at random.
Outcomes you can answer with include only these: 1 for active, 0 for inactive

compound | answer-label
O=C(c1ccoc1)N1CCCN(C(=O)C2COc3ccccc3C2)CC1 (stereo not given) | 0
CC(=O)N1CC(CO)C2(CCN(C(=O)c3ccccc3Cl)CC2)C1 (stereo not given) | 0
CCc1nncn1C1CCN(S(=O)(=O)c2cc(F)ccc2OC)CC1 | 0
C#CCNC(=O)C[C@@H]1O[C@H](CNC(C)=O)[C@@H](O)[C@H]1O | 0
CN(CCc1cn[nH]c1)c1ccc(-c2nc(-c3ccccc3F)no2)cn1 | 1
COc1ccc2c(c1)OCC(C(=O)N1CCCN(c3ncccn3)CC1)C2 (stereo not given) | 0
O=C(c1ccccc1)N1CCOc2ccc(CN3CCc4ccccc4C3)cc2C1 | 1
Cc1cnc(C(=O)NC2C[C@H]3CC[C@@H](C2)N3C(=O)c2cc(C)n(C)n2)cn1 (stereo not given in full) | 0
Cc1cccc(CNC(=O)C2Cn3cccc3C(=O)N2CC(C)C)c1 (stereo not given) | 0

Now for a further compound.
Ask: What did the test return for CCn1ccc(C(=O)N2CCCN(S(=O)(=O)c3ccccc3)CCC(=O)NCC2)n1 ?
Result: 0

---

# method: Cytotoxic Profiling in HEK 293 Cell Line of Diverse Libraries Using Quantitative High-Throughput Screening; also: nearly all actives have a fitted effect of over 60% in size; also: potency is read from the fitted curve at half-maximal effect
# experimental-parameters: HEK 293 viability, ATP luminescence (CellTiter-Glo), 48-72 h; series mostly up to 115 µM
The whole screen tested about 94,000 compounds, of which about 6,200 (6.6%) were called active. About 31% were inconclusive and are not listed. What follows is part of a selection rich in actives, with near analogues and random picks from the rest.
measurement-type: Potency

compound | measurement-type | endpoint-result
CCNC(=O)O[C@@H]1CO[C@H]2[C@@H]1OC[C@@H]2NC(=O)c1cccc(C(=O)OC)c1 | Potency | inactive
O=[S+]1([O-])NC2(CCN(Cc3ccccc3)CC2)COc2ccccc21 | Potency | inactive
Cc1cc2nc3n(c(=O)c2n1CC(=O)Nc1cccc(C(F)(F)F)c1)CCCC3 | Potency | 28.2 µM (active)
CC(=O)Nc1cccc(OCC2CN(Cc3cccc(C(F)(F)F)c3)C(=O)c3c(ccnc3-c3ccc(OCC(=O)O)cc3)O2)c1 (stereo unspecified) | Potency | inactive
COc1ccc(-c2ccnc(N[C@H]3CO[C@H]4[C@@H]3OC[C@H]4OC(=O)Nc3cccc4ccccc34)n2)cc1 | Potency | 39.8 µM (active)

Ask: For the compound shown here, O=C(Nc1ccc(Cl)cc1)N[C@H]1CO[C@H]2[C@@H]1OC[C@H]2O , give the reported Potency.
Result: inactive

Ask: For the compound shown here, Cc1ccc(NC(=O)N2CC[C@H]3C(=O)NCCCCCN(Cc4cccnc4)[C@@H]3C2)cc1C , give the reported Potency.
Result: inactive

Ask: For the compound shown here, O=C(NC1CCCc2c1[nH]c1ccc(F)cc21)c1ccccn1 (stereo unspecified) , give the reported Potency.
Result: inactive

Ask: For the compound shown here, O=c1n(Cc2ccc(F)cc2)nc2n1CCCCC2 , give the reported Potency.
Result: inactive

Ask: For the compound shown here, c1ccc(-n2cnnc2CC2CCN(Cc3ccc(-c4ccn[nH]4)o3)CC2)cc1 , give the reported Potency.
Result: inactive
